Reported values of Kd for individual entries
molecular target: T1, human CD16A-Fc^48R/158V fusion protein (human, UniProt P08637 17-208, limits assumed); assay: SPR, BIAcore 2000, CD16A-Fc immobilized on CM5, koff/kon
T1 construct: Secreted soluble fusion made in HEK-293 cells; also called CD16-Fc; CD16A Fc-fusion protein; not shown: Fc portion of human IgG1
T1 sequence (P08637 17-208 L66R/F176V limits assumed): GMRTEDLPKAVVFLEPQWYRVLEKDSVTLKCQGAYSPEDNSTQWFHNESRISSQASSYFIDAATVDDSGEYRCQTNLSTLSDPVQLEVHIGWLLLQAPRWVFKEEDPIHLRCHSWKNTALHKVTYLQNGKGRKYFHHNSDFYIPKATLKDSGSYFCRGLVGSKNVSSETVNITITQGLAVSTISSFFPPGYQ

BINDER | UNIT SPEC | Kd
affinity matured anti-CD16A scFv 3-LS49 (scFv, IMAC-purified from pSKK2) scFv: EVQLVQSGAEVKKPGESLKVSCKASGYTFTSYYMHWVRQAPGQGLEWMGIINPSGGSTSYAQKFQGRVTMTRDTSTSTVYMELSSLRSEDTAVYYCARGSAYYYDFADYWGQGTLVTVSSGSASAPTLKLEEGEFSEARVQPVLTQPLSVSVAPGQTARITCGGNNIGSKNVHWYQQKPGQAPVLVIYRDSSRPSGIPERLSGSNSGDTATLTISRAQAGDEADYYCQVWDDYIVVFGGGTKLTVLGQPKAAPPVTLFPPSAAAGSEQKLISEEDLNSHHHHHH | nM | 137
human anti-CD16A scFv 50NI (scFv, also called clone 50NI; parental clone) scFv: EVQLVQSGAEVKKPGESLKVSCKASGYTFTSYYMHWVRQAPGQGLEWMGIINPSGGSTSYAQKFQGRVTMTRDTSTSTVYMELSSLRSEDTAVYYCARGSAYYYDFADYWGQGTLVTVSSGSASAPTLKLEEGEFSEARVSYELMQPPSVSVSSGQTASIPCSGDKLEEKYVSWYQQRPGQSPVLVIYQDNKRPSGIPERFSGSNSGNTATLTISGTQAMDEADYYCQVWDNYSVLFGGGTKLTVLGQPKAAPSVTLFPPSAAAGSEQKLISEEDLNSHHHHHH | nM | 1230
